Reference source for all entries: the NIST ThermoML archive (doi:10.1021/je9004992)

Entries and their measured molar heat capacity at constant pressure follow.
# TEST: molar heat capacity at constant pressure
# TEST_PARAMETERS: 308.15 K; 2000 kPa; Liquid; Small sample (50 mg) DSC
Field: numeric (J/K/mol). Do not append units.

CCCCn1cc[n+](C)c1.F[B-](F)(F)F [1-butyl-3-methylimidazolium tetrafluoroborate] = 370.47

Report molar heat capacity at constant pressure for CCCCCCCC[n+]1ccn(C)c1.F[B-](F)(F)F [1-methyl-3-octylimidazolium tetrafluoroborate]
506.55

Read off the recorded molar heat capacity at constant pressure for CCn1cc[n+](C)c1.F[B-](F)(F)F [1-ethyl-3-methylimidazolium tetrafluoroborate]
308.4

Dear colleague, please send me the reported molar heat capacity at constant pressure for CCCCCCn1cc[n+](C)c1.F[B-](F)(F)F [1-hexyl-3-methylimidazolium tetrafluoroborate] when you can.
435.06

* * *

# TEST: molar heat capacity at constant pressure
# TEST_PARAMETERS: 298.15 K; 100 kPa; Liquid; Small sample (50 mg) DSC
Numbers after ± are expanded uncertainties.
MEASURE: molar heat capacity at constant pressure
# output: number + unit

Observe how each entry below is paired with its result.
CCCCCCCC[n+]1ccn(C)c1.F[B-](F)(F)F [1-methyl-3-octylimidazolium tetrafluoroborate] = 500.26 ± 7.8 J/K/mol
CCCCn1cc[n+](C)c1.F[B-](F)(F)F [1-butyl-3-methylimidazolium tetrafluoroborate] = 366.2 ± 5.7 J/K/mol

For the molecule CCCCCCn1cc[n+](C)c1.F[B-](F)(F)F [1-hexyl-3-methylimidazolium tetrafluoroborate] , give its measured molar heat capacity at constant pressure value.
429.8 ± 6.7 J/K/mol

Provide only the value of recorded molar heat capacity at constant pressure for CCn1cc[n+](C)c1.F[B-](F)(F)F [1-ethyl-3-methylimidazolium tetrafluoroborate]
304.87 ± 4.7 J/K/mol

* * *

Measured molar heat capacity at constant pressure of individual entries
# TEST: molar heat capacity at constant pressure
# TEST_PARAMETERS: 283.15 K; 14000 kPa; Liquid; Small sample (50 mg) DSC
The figure you give is taken to be in J/K/mol; do not add the unit.

CCn1cc[n+](C)c1.F[B-](F)(F)F [1-ethyl-3-methylimidazolium tetrafluoroborate] = 300.38

Provide one value: measured molar heat capacity at constant pressure of CCCCn1cc[n+](C)c1.F[B-](F)(F)F [1-butyl-3-methylimidazolium tetrafluoroborate]
360.45

Read the entry CCCCCCn1cc[n+](C)c1.F[B-](F)(F)F [1-hexyl-3-methylimidazolium tetrafluoroborate] and write its reported molar heat capacity at constant pressure.
423.07

Identify molar heat capacity at constant pressure associated with the molecule CCCCCCCC[n+]1ccn(C)c1.F[B-](F)(F)F [1-methyl-3-octylimidazolium tetrafluoroborate]
489.24

* * *

# TEST: molar heat capacity at constant pressure
# TEST_PARAMETERS: 293.15 K; 50000 kPa; Liquid; Small sample (50 mg) DSC
Consider the following compounds and their measured molar heat capacity at constant pressure readings.
Response body: numeric value in J/K/mol, unit text excluded.

Consider the following illustrative entries.
CCCCCCn1cc[n+](C)c1.F[B-](F)(F)F [1-hexyl-3-methylimidazolium tetrafluoroborate] = 428.36
CCCCn1cc[n+](C)c1.F[B-](F)(F)F [1-butyl-3-methylimidazolium tetrafluoroborate] = 364.64

Check the records and state molar heat capacity at constant pressure for CCn1cc[n+](C)c1.F[B-](F)(F)F [1-ethyl-3-methylimidazolium tetrafluoroborate]
303.98

Consider the compound CCCCCCCC[n+]1ccn(C)c1.F[B-](F)(F)F [1-methyl-3-octylimidazolium tetrafluoroborate] . State its measured molar heat capacity at constant pressure.
496.72

* * *

# TEST: molar heat capacity at constant pressure
# TEST_PARAMETERS: 318.15 K; 50000 kPa; Liquid; Small sample (50 mg) DSC
MEASURE: molar heat capacity at constant pressure (J/K/mol)
Give your result in J/K/mol as a bare value.

Answered examples (3):
CCn1cc[n+](C)c1.F[B-](F)(F)F [1-ethyl-3-methylimidazolium tetrafluoroborate] = 312.94
CCCCCCn1cc[n+](C)c1.F[B-](F)(F)F [1-hexyl-3-methylimidazolium tetrafluoroborate] = 441.43
CCCCn1cc[n+](C)c1.F[B-](F)(F)F [1-butyl-3-methylimidazolium tetrafluoroborate] = 375.47

Give the value of molar heat capacity at constant pressure reported for the following: CCCCCCCC[n+]1ccn(C)c1.F[B-](F)(F)F [1-methyl-3-octylimidazolium tetrafluoroborate]
511.97

* * *

# TEST: molar heat capacity at constant pressure
# TEST_PARAMETERS: 303.15 K; 20000 kPa; Liquid; Small sample (50 mg) DSC
MEASURE: molar heat capacity at constant pressure (J/K/mol)
Express your answer in J/K/mol, writing the number without its unit.

Worked cases, answers included:
CCCCCCCC[n+]1ccn(C)c1.F[B-](F)(F)F [1-methyl-3-octylimidazolium tetrafluoroborate] = 503.47
CCn1cc[n+](C)c1.F[B-](F)(F)F [1-ethyl-3-methylimidazolium tetrafluoroborate] = 306.89
CCCCCCn1cc[n+](C)c1.F[B-](F)(F)F [1-hexyl-3-methylimidazolium tetrafluoroborate] = 432.72

Continue with the next compound.
Recall and state the measured molar heat capacity at constant pressure for CCCCn1cc[n+](C)c1.F[B-](F)(F)F [1-butyl-3-methylimidazolium tetrafluoroborate] .
368.45

* * *

# TEST: molar heat capacity at constant pressure
# TEST_PARAMETERS: 288.15 K; 6000 kPa; Liquid; Small sample (50 mg) DSC
MEASURE: molar heat capacity at constant pressure (J/K/mol)
The reply should be a number in J/K/mol, with the unit left off.

Consider the following illustrative entries.
CCCCCCCC[n+]1ccn(C)c1.F[B-](F)(F)F [1-methyl-3-octylimidazolium tetrafluoroborate] = 493.11
CCn1cc[n+](C)c1.F[B-](F)(F)F [1-ethyl-3-methylimidazolium tetrafluoroborate] = 301.76
CCCCn1cc[n+](C)c1.F[B-](F)(F)F [1-butyl-3-methylimidazolium tetrafluoroborate] = 362.24

Read the next record carefully.
Provide only the value of recorded molar heat capacity at constant pressure for CCCCCCn1cc[n+](C)c1.F[B-](F)(F)F [1-hexyl-3-methylimidazolium tetrafluoroborate]
425.12

* * *

# TEST: molar heat capacity at constant pressure
# TEST_PARAMETERS: 318.15 K; 30000 kPa; Liquid; Small sample (50 mg) DSC
MEASURE: molar heat capacity at constant pressure (J/K/mol)
Kindly provide the numeric value in J/K/mol only, without the unit symbol.

CCn1cc[n+](C)c1.F[B-](F)(F)F [1-ethyl-3-methylimidazolium tetrafluoroborate] = 312.63
CCCCn1cc[n+](C)c1.F[B-](F)(F)F [1-butyl-3-methylimidazolium tetrafluoroborate] = 375.26

Consider the molecule CCCCCCCC[n+]1ccn(C)c1.F[B-](F)(F)F [1-methyl-3-octylimidazolium tetrafluoroborate] and give its recorded molar heat capacity at constant pressure.
511.98

Give molar heat capacity at constant pressure for the following molecule: CCCCCCn1cc[n+](C)c1.F[B-](F)(F)F [1-hexyl-3-methylimidazolium tetrafluoroborate]
441.14

* * *

# TEST: molar heat capacity at constant pressure
# TEST_PARAMETERS: 303.15 K; 10000 kPa; Liquid; Small sample (50 mg) DSC
Reported molar heat capacity at constant pressure is given for each of the following compounds.
# value in J/K/mol; strip the unit string

Recorded results for 3 compounds are shown here.
CCCCn1cc[n+](C)c1.F[B-](F)(F)F [1-butyl-3-methylimidazolium tetrafluoroborate] = 368.37
CCn1cc[n+](C)c1.F[B-](F)(F)F [1-ethyl-3-methylimidazolium tetrafluoroborate] = 306.73
CCCCCCCC[n+]1ccn(C)c1.F[B-](F)(F)F [1-methyl-3-octylimidazolium tetrafluoroborate] = 503.49

Moving on to another compound below.
Name the recorded molar heat capacity at constant pressure of the item CCCCCCn1cc[n+](C)c1.F[B-](F)(F)F [1-hexyl-3-methylimidazolium tetrafluoroborate] in your answer.
432.54

* * *

# TEST: molar heat capacity at constant pressure
# TEST_PARAMETERS: 283.15 K; 4000 kPa; Liquid; Small sample (50 mg) DSC
MEASURE: molar heat capacity at constant pressure (J/K/mol)
Give the value, in units of J/K/mol, as a plain number.

CCCCCCn1cc[n+](C)c1.F[B-](F)(F)F [1-hexyl-3-methylimidazolium tetrafluoroborate] = 422.85
CCCCCCCC[n+]1ccn(C)c1.F[B-](F)(F)F [1-methyl-3-octylimidazolium tetrafluoroborate] = 489.23
CCn1cc[n+](C)c1.F[B-](F)(F)F [1-ethyl-3-methylimidazolium tetrafluoroborate] = 300.24

Please find the next compound below.
Look up molar heat capacity at constant pressure of CCCCn1cc[n+](C)c1.F[B-](F)(F)F [1-butyl-3-methylimidazolium tetrafluoroborate] and report it.
360.31

* * *

# TEST: molar heat capacity at constant pressure
# TEST_PARAMETERS: 283.15 K; 6000 kPa; Liquid; Small sample (50 mg) DSC
MEASURE: molar heat capacity at constant pressure (J/K/mol)
Give the value, in units of J/K/mol, as a plain number.

Worked set:
CCCCCCn1cc[n+](C)c1.F[B-](F)(F)F [1-hexyl-3-methylimidazolium tetrafluoroborate] = 422.89
CCCCCCCC[n+]1ccn(C)c1.F[B-](F)(F)F [1-methyl-3-octylimidazolium tetrafluoroborate] = 489.24
CCn1cc[n+](C)c1.F[B-](F)(F)F [1-ethyl-3-methylimidazolium tetrafluoroborate] = 300.27

For the molecule CCCCn1cc[n+](C)c1.F[B-](F)(F)F [1-butyl-3-methylimidazolium tetrafluoroborate] , give its reported molar heat capacity at constant pressure.
360.34
